# experimental.target: Muscarinic acetylcholine receptor M1 (Homo sapiens, UniProt P11229)
# assay.remarks: Antagonist activity at human recombinant muscarinic receptor M1 expressed in CHO-K1 cells assessed as EC80 acetylcholine-induced calcium flux incubated for 30 mins
# Format: functional, cell-based
# test.parameters: read-out: IC50
measure: pIC50
Recall that pIC50 is obtained by taking minus log10 of the concentration measured in molar.

input: Please report the recorded pIC50 for N#Cc1ccc(N2C3COCC2CN(C(=O)CCS(=O)(=O)c2cccc4ncsc24)C3)nc1 .
output: 7.51

input: Please report the recorded pIC50 for Cc1cc(F)cnc1N1CCN(C(=O)CCS(=O)(=O)c2cccc3ncsc23)[C@@H](C)C1 .
output: 7.15

input: Please report the recorded pIC50 for Cc1cc(F)cnc1N1CCN(C(=O)CCCc2cccc3ncccc23)CC1 .
output: 7.16

input: Please report the recorded pIC50 for C[C@@H]1CN(c2ccncc2Cl)CCN1C(=O)CCCc1cccc2ncccc12 .
output: 7.42

input: Please report the recorded pIC50 for O=C(CCS(=O)(=O)c1cccc2ncsc12)N1CCN(c2ccnc(C(F)(F)F)c2)CC1 .
output: 5.32

input: Please report the recorded pIC50 for Cc1ccncc1N1CCN(C(=O)CCCc2cccc3ncccc23)[C@H](C)C1 .
output: 7.70

input: Please report the recorded pIC50 for O=C(CCCc1cccc2ncccc12)N1CCN(c2ccncc2F)CC1 .
output: 6.31

input: Please report the recorded pIC50 for Cc1cc(F)cnc1N1CCN(C(=O)CCCc2cccc3ncsc23)[C@@H](C)C1 .
output: 7.62

input: Please report the recorded pIC50 for N#Cc1cc(N2CCN(C(=O)CCCc3cccc4ncccc34)CC2)ccn1 .
output: 7.19

input: Please report the recorded pIC50 for O=C(CCS(=O)(=O)c1cccc2ncsc12)N1CCN(c2ccc(Cl)cn2)CC1 .
output: 6.80

###

Record form. Attribute: IC50. Fill in for each entry.
# experimental.target: Muscarinic acetylcholine receptor M1 (Homo sapiens, UniProt P11229)
# Sequence (P11229 whole entry): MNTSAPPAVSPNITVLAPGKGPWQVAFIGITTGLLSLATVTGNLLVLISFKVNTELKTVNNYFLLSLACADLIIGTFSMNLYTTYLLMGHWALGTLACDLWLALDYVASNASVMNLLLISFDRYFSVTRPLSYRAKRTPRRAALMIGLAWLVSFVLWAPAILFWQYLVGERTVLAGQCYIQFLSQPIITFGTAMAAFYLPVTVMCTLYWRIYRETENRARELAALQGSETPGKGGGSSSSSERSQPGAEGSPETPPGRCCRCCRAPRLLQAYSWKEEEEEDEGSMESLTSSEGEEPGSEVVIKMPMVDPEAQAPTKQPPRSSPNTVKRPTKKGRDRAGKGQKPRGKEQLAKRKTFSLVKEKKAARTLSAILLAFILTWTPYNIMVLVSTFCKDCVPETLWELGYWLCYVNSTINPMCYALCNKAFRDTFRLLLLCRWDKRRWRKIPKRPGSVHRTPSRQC
# assay.remarks: Antagonist activity at human recombinant muscarinic receptor M1 expressed in CHO-K1 cells assessed as EC80 acetylcholine-induced calcium flux incubated for 30 mins
# Assay type: functional, cell-based
# test.parameters: read-out: IC50
Reply numerically in nM, unit not repeated.

input: Please report the recorded IC50 for O=C(CCCc1cccc2ncccc12)N1CC2CC1CN2c1ccc(F)cn1 (racemic) .
output: 950

input: Please report the recorded IC50 for O=C(CCNS(=O)(=O)c1cccc2ncccc12)N1CCN(c2ccncc2)CC1 .
output: 130

input: Please report the recorded IC50 for O=C(CCS(=O)(=O)c1cccc2ncsc12)N1CCN(c2ccncc2F)CC1 .
output: 380

input: Please report the recorded IC50 for O=C(CCCc1cccc2ncccc12)N1CCN(c2ccncc2)CC1 .
output: 24

input: Please report the recorded IC50 for N#Cc1ccc(N2C3CCC2CN(C(=O)CCS(=O)(=O)c2cccc4ncsc24)C3)nc1 .
output: 1.8

###

# experimental.target: Muscarinic acetylcholine receptor M1 (Homo sapiens, UniProt P11229)
# assay.remarks: Antagonist activity at human recombinant muscarinic receptor M1 expressed in CHO-K1 cells assessed as EC80 acetylcholine-induced calcium flux incubated for 30 mins
# Assay type: functional, cell-based
# test.parameters: read-out: IC50
measure: IC50 (nM)
Reply numerically in nM, unit not repeated.

input: Please report the recorded IC50 for Cc1cc(F)cnc1N1CCN(C(=O)CNCc2cccc3ncsc23)[C@@H](C)C1 .
output: 3000

input: Please report the recorded IC50 for N#Cc1ccc(N2CC3CCC(C2)N3C(=O)CCS(=O)(=O)c2cccc3ncsc23)nc1 .
output: 8.7

input: Please report the recorded IC50 for CC1(C)CN(c2ccc(C#N)cn2)CCN1C(=O)CCS(=O)(=O)c1cccc2ncsc12 .
output: 4100

input: Please report the recorded IC50 for N#Cc1ccc(N2CCN(C(=O)CCS(=O)(=O)c3cccc4ncsc34)CC2)nc1 .
output: 5.8

input: Please report the recorded IC50 for N#Cc1ccc(C2=CCN(C(=O)CCS(=O)(=O)c3cccc4ncsc34)CC2)nc1 .
output: 80

###

# experimental.target: Muscarinic acetylcholine receptor M1 (Homo sapiens)
# assay.remarks: Antagonist activity at human recombinant muscarinic receptor M1 expressed in CHO-K1 cells assessed as EC80 acetylcholine-induced calcium flux incubated for 30 mins
# Assay type: functional, cell-based
# test.parameters: read-out: IC50
measure: IC50

input: Please report the recorded IC50 for O=C(CCCc1cccc2ncccc12)N1CC2(C1)CN(c1ccc(F)cn1)C2 .
output: > 20 µM

input: Please report the recorded IC50 for Cc1cc(F)cnc1N1CCN(C(=O)CCCc2cccc3ncc(CO)cc23)[C@@H](C)C1 .
output: > 0.17 µM

input: Please report the recorded IC50 for Cc1cc(F)cnc1N1CCN(C(=O)CCCc2cccc3cncnc23)[C@@H](C)C1 .
output: > 20 µM
